These entries and their values trace back to the supplement of paper PMC11061612.

- Test system: T47D (Breast Carcinoma)
- assay-method-text: combination Emax (second highest fraction inhibited in the dose matrix, 72 h); higher = more inhibition; extreme values may be limits of the assay
combination Emax reference
reported-metric: combination Emax

# compound, measurement
records = [
    ("COc1cc2c(cc1OCCCCCOc1cc3c(cc1OC)C(=O)N1C=C(C)C[C@H]1C=N3)N=C[C@@H]1CC(C)=CN1C2=O [SG3199] + O=C(c1cc(Cc2n[nH]c(=O)c3ccccc23)ccc1F)N1CCN(C(=O)C2CC2)CC1 [Olaparib] (first compound max 0.001 µM, 7x7, partner max 10 µM)", 0.164),
    ("CC1(C)CCC(CN2CCN(c3ccc(C(=O)NS(=O)(=O)c4ccc(NCC5CCOCC5)c([N+](=O)[O-])c4)c(Oc4cnc5[nH]ccc5c4)c3)CC2)=C(c2ccc(Cl)cc2)C1 [Venetoclax] + COc1cc(Nc2ncc3c(n2)-c2ccc(Cl)cc2C(c2c(F)cccc2OC)=NC3)ccc1C(=O)O [Alisertib] (first compound max 1 µM, 7x7, partner max 10 µM)", 0.326),
    ("CN(C)CCCOc1ccc(-c2ccc3ncc4c(c3c2)n(C2CCOCC2)c(=O)n4C)cn1 [AZD0156] + CCN(CCO)CCCOc1ccc2c(Nc3cc(CC(=O)Nc4cccc(F)c4)[nH]n3)ncnc2c1 [AZD2811] (first compound max 1 µM, 7x7, partner max 1 µM)", 0.282),
    ("COc1cccc(OCCCN)c1-c1cc(Nc2cnc(C#N)cn2)n[nH]1 [Prexasertib] + C=CCn1c(=O)c2cnc(Nc3ccc(N4CCN(C)CC4)cc3)nc2n1-c1cccc(C(C)(C)O)n1 [AZD1775] (first compound max 1 µM, partner max 1 µM)", 0.704),
]

----------
- System: LS-1034 (Colorectal Carcinoma)
- assay-method-text: combination Emax (second highest fraction inhibited in the dose matrix, 72 h); higher = more inhibition; extreme values may be limits of the assay

# compound, target, combination Emax
measured = [
    ("Cc1c2c(nn1C)CSCc1cc(n(C)n1)CSc1cc(c3ccccc3c1)OCCCc1c(C(=O)O)n(C)c3c-2c(Cl)ccc13 [AZD5991] + Nc1ccn([C@@H]2O[C@H](CO)[C@@H](O)C2(F)F)c(=O)n1 [Gemcitabine] (first compound max 1 µM, 7x7, partner max 0.3 µM)", "LS-1034 (Colorectal Carcinoma)", 0.614),
    ("Cc1c2c(nn1C)CSCc1cc(n(C)n1)CSc1cc(c3ccccc3c1)OCCCc1c(C(=O)O)n(C)c3c-2c(Cl)ccc13 [AZD5991] + C1CN(CCC1(C(=O)N[C@@H](CCO)C2=CC=C(C=C2)Cl)N)C3=NC=NC4=C3C=CN4 [Capivasertib] (first compound max 1 µM, 7x7, partner max 3 µM)", "LS-1034 (Colorectal Carcinoma)", 0.22),
    ("NC1(C(=O)N[C@@H](CCO)c2ccc(Cl)cc2)CCN(c2ncnc3[nH]ccc23)CC1 [Capivasertib] + CC(C)n1c(=O)n(C)c2cnc3cc(F)c(-c4ccc(OCCCN5CCCCC5)nc4)cc3c21 [AZD1390] (first compound max 10 µM, 7x7, partner max 0.3 µM)", "LS-1034 (Colorectal Carcinoma)", 0.322),
    ("NC1(C(=O)N[C@@H](CCO)c2ccc(Cl)cc2)CCN(c2ncnc3[nH]ccc23)CC1 [Capivasertib] + CC(=O)c1c(C)c2cnc(Nc3ccc(N4CCNCC4)cn3)nc2n(C2CCCC2)c1=O [Palbociclib] (first compound max 10 µM, 7x7, partner max 10 µM)", "LS-1034 (Colorectal Carcinoma)", 0.499),
    ("N#Cc1cnc(Nc2cc(NC[C@H]3CNCCO3)c(C(F)(F)F)cn2)cn1 [SRA737] + O=c1[nH]cc(F)c(=O)[nH]1 [5-Fluorouracil] (first compound max 10 µM, 7x7, partner max 20 µM)", "LS-1034 (Colorectal Carcinoma)", 0.77),
    ("CCN(CCO)CCCOc1ccc2c(Nc3cc(CC(=O)Nc4cccc(F)c4)[nH]n3)ncnc2c1 [AZD2811] + O=C(c1cc(Cc2n[nH]c(=O)c3ccccc23)ccc1F)N1CCN(C(=O)C2CC2)CC1 [Olaparib] (first compound max 1 µM, 7x7, partner max 10 µM)", "LS-1034 (Colorectal Carcinoma)", 0.192),
    ("CC1(C)CCC(CN2CCN(c3ccc(C(=O)NS(=O)(=O)c4ccc(NCC5CCOCC5)c([N+](=O)[O-])c4)c(Oc4cnc5[nH]ccc5c4)c3)CC2)=C(c2ccc(Cl)cc2)C1 [Venetoclax] + C[C@@H]1COCCN1C2=NC(=NC(=C2)C3(CC3)[S@](=N)(=O)C)C4=C5C=CNC5=NC=C4 [AZD6738] (first compound max 1 µM, 7x7, partner max 10 µM)", "LS-1034 (Colorectal Carcinoma)", 0.624),
]

----------
- Test system: PL4 (Pancreatic Carcinoma);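 also: after 72 h of two-drug dosing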
- assay-method-text: Bliss excess, mean over the matrix (fraction); higher = more synergy
Would you mind labelling by Bliss excess? At or over -0.06 is Fulfilled, under is Not fulfilled.

# molecule, label-value
records = [
    ("Cn1cnc2c(F)c(Nc3ccc(Br)cc3Cl)c(C(=O)NOCCO)cc21 [Selumetinib] + C[C@@H]1COCCN1C2=NC(=NC(=C2)C3(CC3)[S@](=N)(=O)C)C4=C5C=CNC5=NC=C4 [AZD6738] (first compound max 10 µM, 7x7, partner max 10 µM)", "Fulfilled"),
    ("Cn1cnc2c(F)c(Nc3ccc(Br)cc3Cl)c(C(=O)NOCCO)cc21 [Selumetinib] + CC(C)n1c(=O)n(C)c2cnc3cc(F)c(-c4ccc(OCCCN5CCCCC5)nc4)cc3c21 [AZD1390] (first compound max 10 µM, 7x7, partner max 0.3 µM)", "Fulfilled"),
    ("CC1(C)CCC(CN2CCN(c3ccc(C(=O)NS(=O)(=O)c4ccc(NCC5CCOCC5)c([N+](=O)[O-])c4)c(Oc4cnc5[nH]ccc5c4)c3)CC2)=C(c2ccc(Cl)cc2)C1 [Venetoclax] + C[C@@H]1COCCN1C2=NC(=NC(=C2)C3(CC3)[S@](=N)(=O)C)C4=C5C=CNC5=NC=C4 [AZD6738] (first compound max 1 µM, 7x7, partner max 10 µM)", "Not fulfilled"),
    ("C=CCn1c(=O)c2cnc(Nc3ccc(N4CCN(C)CC4)cc3)nc2n1-c1cccc(C(C)(C)O)n1 [AZD1775] + C1CN(CCC1(C(=O)N[C@@H](CCO)C2=CC=C(C=C2)Cl)N)C3=NC=NC4=C3C=CN4 [Capivasertib] (first compound max 3 µM, partner max 3 µM)", "Fulfilled"),
    ("COc1nnc2ccc(N3CCC(c4ccc(OCCN5CCN(C)C(=O)[C@H]5C)cc4)CC3)nn12 [AZD5153] + C=CCn1c(=O)c2cnc(Nc3ccc(N4CCN(C)CC4)cc3)nc2n1-c1cccc(C(C)(C)O)n1 [AZD1775] (first compound max 1 µM, partner max 1 µM)", "Fulfilled"),
    ("C[C@@H]1COCCN1c1cc(C2([S@](C)(=N)=O)CC2)nc(-c2ccnc3[nH]ccc23)n1 [AZD6738] + O=C(c1cc(Cc2n[nH]c(=O)c3ccccc23)ccc1F)N1CCN(C(=O)C2CC2)CC1 [Olaparib] (first compound max 10 µM, 7x7, partner max 10 µM)", "Fulfilled"),
    ("CC1(C)CCC(CN2CCN(c3ccc(C(=O)NS(=O)(=O)c4ccc(NCC5CCOCC5)c([N+](=O)[O-])c4)c(Oc4cnc5[nH]ccc5c4)c3)CC2)=C(c2ccc(Cl)cc2)C1 [Venetoclax] + C1CN(CCC1(C(=O)N[C@@H](CCO)C2=CC=C(C=C2)Cl)N)C3=NC=NC4=C3C=CN4 [Capivasertib] (first compound max 1 µM, 7x7, partner max 3 µM)", "Fulfilled"),
    ("C=CCn1c(=O)c2cnc(Nc3ccc(N4CCN(C)CC4)cc3)nc2n1-c1cccc(C(C)(C)O)n1 [AZD1775] + O=C(c1cc(Cc2n[nH]c(=O)c3ccccc23)ccc1F)N1CCN(C(=O)C2CC2)CC1 [Olaparib] (first compound max 1 µM, partner max 10 µM)", "Fulfilled"),
    ("C[C@@H](c1ccc2nccn2c1)n1nnc2ncc(-c3cnn(C)c3)nc21 [Savolitinib] + CN(CC[C@H](CSC1=CC=CC=C1)NC2=C(C=C(C=C2)S(=O)(=O)NC(=O)C3=CC=C(C=C3)N4CCC(CC4)[C@H](C5=CC=CC=C5C6=CC=C(C=C6)Cl)O)S(=O)(=O)C(F)(F)F)CCO [AZD4320] (first compound max 1 µM, 7x7, partner max 1 µM)", "Not fulfilled"),
    ("CN(CCO)CC[C@H](CSc1ccccc1)Nc1ccc(S(=O)(=O)NC(=O)c2ccc(N3CCC([C@@H](O)c4ccccc4-c4ccc(Cl)cc4)CC3)cc2)cc1S(=O)(=O)C(F)(F)F [AZD4320] + Cc1cc2ncnn2cc1Nc1ncc2c(n1)n(C1CCOCC1)c(=O)n2C [AZD7648] (first compound max 1 µM, 7x7, partner max 10 µM)", "Not fulfilled"),
    ("CN(CCO)CC[C@H](CSc1ccccc1)Nc1ccc(S(=O)(=O)NC(=O)c2ccc(N3CCC([C@@H](O)c4ccccc4-c4ccc(Cl)cc4)CC3)cc2)cc1S(=O)(=O)C(F)(F)F [AZD4320] + CN(C)CCCOc1ccc(-c2ccc3ncc4c(c3c2)n(C2CCOCC2)c(=O)n4C)cn1 [AZD0156] (first compound max 1 µM, 7x7, partner max 1 µM)", "Fulfilled"),
    ("CC(=O)c1c(C)c2cnc(Nc3ccc(N4CCNCC4)cn3)nc2n(C2CCCC2)c1=O [Palbociclib] + Cn1cnc2c(F)c(Nc3ccc(Br)cc3Cl)c(C(=O)NOCCO)cc21 [Selumetinib] (first compound max 10 µM, 7x7, partner max 10 µM)", "Fulfilled"),
]
